What MIC was measured for each of the following?
Test system: Ps. aeruginosa, 32121
Experiment: Antimicrobial activity (MIC), standard method of Japan Society of Chemotherapy
Format: cell-based
Details: Pseudomonas aeruginosa, read-out: MIC
Counter-ions that a name gives are not always drawn.
Please state the figure in µg/mL; there is no need to write the unit.

Inquiry: Look at this compound and give its reported MIC. Cc1c(N2C[C@@H](F)[C@@H](C3(N)CC3)C2)c(F)c(N)c2c(=O)c(C(=O)O)cn([C@@H]3C[C@@H]3F)c12 [Example 2, hydrochloride]
Reply text: 0.05

Inquiry: Another compound to look at: "C[C@H]1COc2c(N3C[C@@H](F)[C@@H](C4(N)CC4)C3)c(F)cc3c(=O)c(C(=O)O)cn1c23.Cl"
Reply text: 0.1

Inquiry: Another compound to look at: "C[C@H]1COc2c(N3C[C@@H](F)[C@@H](C4(N)CC4)C3)c(F)c(N)c3c(=O)c(C(=O)O)cn1c23"
Reply text: 0.2

Inquiry: Another compound to look at: "COc1c(N2C[C@@H](F)[C@@H](C3(N)CC3)C2)c(F)c(N)c2c(=O)c(C(=O)O)cn([C@@H]3C[C@@H]3F)c12"
Reply text: 0.2
